# measurement.target: HIV-1 protease (Human immunodeficiency virus type 1 group M subtype B, UniProt P04585)
# experiment.notes: biochemical
# stated.conditions: read-out: HIV-1 Protease % Inhib, dose 1.100 uM
Entries annotated with measured inhibition at 1.1 µM
assay.readout: inhibition at 1.1 µM (%)

> print(dat)
                                   compound                        measurement.target         assay.readout  uom  value.observed
1  CCC(c1cccc(NS(=O)(=O)c2ccc(Cl)cc2)c1)c1c(O)c2c(oc1=O)CCCCCC2 (stereo not shown)  HIV-1 protease (Human immunodeficiency virus type 1 group M subtype B, UniProt P04585)  inhibition at 1.1 µM    %             116
2  Cc1cccc(S(=O)(=O)Nc2cccc(C(c3c(O)c4c(oc3=O)CCCCCC4)C3CC3)c2)c1 (stereo not shown)  HIV-1 protease (Human immunodeficiency virus type 1 group M subtype B, UniProt P04585)  inhibition at 1.1 µM    %              93
3  Cc1ccc(S(=O)(=O)n2cncc2C[C@H](NC(=O)OC(C)(C)C)C(=O)Nc2cccc(C(c3c(O)c4c(oc3=O)CCCCCC4)C3CC3)c2)cc1 (stereo partly shown)  HIV-1 protease (Human immunodeficiency virus type 1 group M subtype B, UniProt P04585)  inhibition at 1.1 µM    %            97.6
4  COc1cccc(Br)c1S(=O)(=O)Nc1cccc(C(c2c(O)c3c(oc2=O)CCCCCC3)C2CC2)c1 (stereo not shown)  HIV-1 protease (Human immunodeficiency virus type 1 group M subtype B, UniProt P04585)  inhibition at 1.1 µM    %            93.6
5  CC(C)C(c1cccc(NS(=O)(=O)c2ccc(Cl)cc2)c1)c1c(O)c2c(oc1=O)CCCCCC2 (stereo not shown)  HIV-1 protease (Human immunodeficiency virus type 1 group M subtype B, UniProt P04585)  inhibition at 1.1 µM    %              87
6  O=c1oc2c(c(O)c1[C@H](c1cccc(NS(=O)(=O)c3cccc4cccnc34)c1)C1CC1)CCCCCC2  HIV-1 protease (Human immunodeficiency virus type 1 group M subtype B, UniProt P04585)  inhibition at 1.1 µM    %              99
7  O=c1oc2c(c(O)c1C(c1cccc(NS(=O)(=O)c3cccc(Cl)c3)c1)C1CC1)CCCCCC2 (stereo not shown)  HIV-1 protease (Human immunodeficiency virus type 1 group M subtype B, UniProt P04585)  inhibition at 1.1 µM    %            91.1
